system: 282377-053-R-J1-PDC complex spheroid viability; assay: Anticancer human tumor 282377-053-R-J1-PDC patient-derived colon adenocarcinoma cell line growth inhibition [RAS]; details: second compound 0.00949 µM; first compound 10 µM; stronger effect = lower value;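 also: spheroids exposed to agents for seven days before readout; luminescence viability as percent of DMSO vehicle control wells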
property.label: viability, T/C

Examples from the recorded data:
CC(Nc1ccc2c(c1)OCCn1cc(N3C(=O)OCC3C(F)F)nc1-2)C(N)=O (stereo not drawn) + CCn1c(-c2cccnc2C(C)OC)c2c3cc(ccc31)N1CCOC(CC(NC(=O)C(C(C)C)N(C)C(=O)C3(F)CCN(C(=O)C#CC(C)(C)N(C)C)CC3)C(=O)N3CCCC(N3)C(=O)OCC(C)(C)C2)C1 = 76.3%
CC(C)NCC(C(=O)N1CCN(c2ncnc3c2C(C)CC3O)CC1)c1ccc(Cl)cc1 (stereo not drawn) + CCn1c(-c2cc(N3CCN(C)CC3)cnc2C(C)OC)c2c3cc(ccc31)-c1csc(n1)CC(NC(=O)C1CC1C)C(=O)N1CCCC(N1)C(=O)OCC(C)(C)C2 = 69.1%
C[C@@H](NC(=O)c1ncnc(N)c1Cl)c1ncc(C(=O)Nc2cc(C(F)(F)F)c(Cl)cn2)s1 + CCn1c(-c2cc(N3CCN(C)CC3)cnc2C(C)OC)c2c3cc(ccc31)-c1csc(n1)CC(NC(=O)C1CC1C)C(=O)N1CCCC(N1)C(=O)OCC(C)(C)C2 = 57.9%
CC(C)NCC(C(=O)N1CCN(c2ncnc3c2C(C)CC3O)CC1)c1ccc(Cl)cc1 (stereo not drawn) + CCn1c(-c2cccnc2C(C)OC)c2c3cc(ccc31)N1CCOC(CC(NC(=O)C(C(C)C)N(C)C(=O)C3(F)CCN(C(=O)C#CC(C)(C)N(C)C)CC3)C(=O)N3CCCC(N3)C(=O)OCC(C)(C)C2)C1 = 74.5%
CC(=O)OC12COC1CC(O)C1(C)C(=O)C(O)C3=C(C)C(OC(=O)C(O)C(NC(=O)OC(C)(C)C)c4ccccc4)CC(O)(C(OC(=O)c4ccccc4)C21)C3(C)C (stereo not drawn) + CCn1c(-c2cc(N3CCN(C)CC3)cnc2C(C)OC)c2c3cc(ccc31)-c1csc(n1)CC(NC(=O)C1CC1C)C(=O)N1CCCC(N1)C(=O)OCC(C)(C)C2 = 91.9%

// query Answer with the recorded viability, T/C for the compound listed here: C[C@@H](NC(=O)c1ncnc(N)c1Cl)c1ncc(C(=O)Nc2cc(C(F)(F)F)c(Cl)cn2)s1 + CCn1c(-c2cccnc2C(C)OC)c2c3cc(ccc31)N1CCOC(CC(NC(=O)C(C(C)C)N(C)C(=O)C3(F)CCN(C(=O)C#CC(C)(C)N(C)C)CC3)C(=O)N3CCCC(N3)C(=O)OCC(C)(C)C2)C1
// result 58.9%

// query Give me measured viability, T/C, please, for this compound: NC1c2ccccc2OC12CCN(c1cnc3c(N4CCCc5ncccc54)n[nH]c3n1)CC2 (stereo not drawn) + CCn1c(-c2cc(N3CCN(C)CC3)cnc2C(C)OC)c2c3cc(ccc31)-c1csc(n1)CC(NC(=O)C1CC1C)C(=O)N1CCCC(N1)C(=O)OCC(C)(C)C2
// result 107%

// query Using known records, supply viability, T/C for CC1(O)CCCC1n1c(=O)c(C(F)F)cc2cnc(NC3CCN(S(C)(=O)=O)CC3)nc21 (stereo not drawn) + CCn1c(-c2cccnc2C(C)OC)c2c3cc(ccc31)N1CCOC(CC(NC(=O)C(C(C)C)N(C)C(=O)C3(F)CCN(C(=O)C#CC(C)(C)N(C)C)CC3)C(=O)N3CCCC(N3)C(=O)OCC(C)(C)C2)C1
// result 8.76%
